- System tested: HLA-A*02:01 (Homo sapiens, UniProt P04439, D140Y/D185E/D98H/E176V/E277Q/G131W/G231S/I119V/I121R/I166T/I218V/L300P/L318F/N151K/N90K/P208A/P217A/Q86G/Q94H/R138H/R169H/T345S)
- Experimental details: MHC binding assay (UV-ligand exchange, beta2m ELISA, peptide exchange yield)
- Condition summary: binding to HLA-A*02:01, β2m ELISA
- Source text: Candidate peptides for T cell based therapies according to the present invention were further tested for their MHC binding capacity (affinity). The individual peptide-MHC complexes were produced by UV-ligand exchange, where a UV-sensitive peptide is cleaved upon UV-irradiation, and exchanged with the peptide of interest as analyzed. Only peptide candidates that can effectively bind and stabilize the peptide-receptive MHC molecules prevent dissociation of the MHC complexes. […]
Assay endpoint: Peptide exchange (MHC class I binding score, peptide exchange yield)

Here's what some known entries look like.
• 108 (SLAELVPGVGGI; listed as Homo sapiens) [compound 108] = “+++” (≥50 = +++)
• 43 (TLDAAQPRV; listed as Homo sapiens) [compound 43] = “++” (≥20% = ++)
• 52 (ALDSSNSMQTI; listed as Homo sapiens) [compound 52] = “++” (≥20% = ++)
• 138 (KQFEGTVEI; listed as Homo sapiens) [compound 138] = “+++” (≥50 = +++)

Lab note: each substance below needs its Peptide exchange (MHC class I binding score, peptide exchange yield) filled in.
1. 32 (KLNTETFGV; listed as Homo sapiens) [compound 32]
2. 58 (AMADKMDMSL; listed as Homo sapiens) [compound 58]

“++” (≥20% = ++)
“++” (≥20% = ++)
